Source of measurements: PubChem BioAssay (NCI)

Tested on: COLO 205 colon
Assay: NCI-60 one-dose screen, 48 h
Conditions: 10 µM unless noted
Description: Cells are grown in 96 well plates and exposed to the test compound for 48 hours. Compounds are tested at a single concentration, which is 10^-5 M for most compounds. The reported endpoint is percent growth (GI% or GIPRCNT), where numbers from 0 - 100% represent growth inhibition, and numbers from -100% - 0 represent cell death. For example, a value of 40 represents 60% growth inhibition. A value of 0 means no net growth occurred over the course of the experiment. […]
About 83,000 compounds went through this panel and 20% of them were active in at least one assay; those are over-represented in the sample as a whole. Active and inactive are the calls of the source. Rule for the calls: active = growth percent below 10; inactive = the rest.
Answer with one of the outcomes given here: active, inactive

Completed entries (count: 5):
Cc1cccc(C(=O)O)n1	inactive
C#CC[C@@H]1C[C@]2(C)[C@H]3CC[C@@H]4[C@H]5C(C(=C)C)CC[C@]5(C(=O)NCCCN5CCN(CCCN)CC5)CC[C@@]4(C)[C@]3(C)CC[C@H]2C(C)(C)[C@H]1OC(C)=O (some centres undefined)	active
CCCCCCCCCCCCCCC(C(=O)OCC)C(=O)OCC	inactive
O=C(OCc1ccc2c(Cl)cc(Cl)c(O)c2n1)c1cc2ccccc2[nH]1	active
CCOP(=O)(O)OP(=O)(O)OCC	inactive

IN: Call for entry CCCCCCCCCCCC1=NC(C)(C)CN1C(C)(C)CO :
OUT: active

IN: Can you handle COc1ccc(-c2nc(-c3ccccc3OCc3ccccc3OC)nc(C)c2C(C)=O)cc1 next?
OUT: inactive

IN: Can you handle O=C(/C=C/c1ccccc1)n1c(-c2ccccc2)nc2ccccc21 next?
OUT: inactive

IN: Can you handle COc1ccc(-c2nsc3c2NC(=O)CC3c2ccc3c(c2)OCO3)cc1 (centres undefined) next?
OUT: active

IN: Can you handle COc1ccc2[nH]c(C(=O)OCc3ccc4cccc(O)c4n3)cc2c1 next?
OUT: active

IN: Can you handle COc1ccc(-c2nc(-c3cc(OC)cc(OC)c3)[nH]c2-c2ccc(OC)cc2)cc1 next?
OUT: inactive

IN: Can you handle COc1ccc(C2CC(c3cccc(Nc4ccnc5cc(Cl)ccc45)c3)=NN2c2ccc(Cl)cc2)cc1 (centres undefined) next?
OUT: inactive

IN: Can you handle COc1ccc(-c2oc(=O)ccc2-c2cc(OC)c(OC)c(OC)c2)cc1F next?
OUT: inactive

IN: Can you handle O=C(O)C1[S][Sb]([CH](C(=O)O)[CH](C(=O)O)[Sb]2[S]C(C(=O)O)C(C(=O)O)[S]2)[S]C1C(=O)O (centres undefined) next?
OUT: inactive

IN: Can you handle COc1ccc2cc(-c3nc(C)c(C(C)=O)c(-c4ccc(C)cc4)n3)ccc2c1 next?
OUT: inactive

IN: Can you handle C#CC[C@@H]1C[C@]2(C)[C@H]3CC[C@@H]4[C@H]5C(C(=C)C)CC[C@]5(C(=O)NCCCCCCCCN)CC[C@@]4(C)[C@]3(C)CC[C@H]2C(C)(C)[C@H]1OC(C)=O (some centres undefined) next?
OUT: inactive

IN: Can you handle Cc1cc(C)cc(CCCCCCCCCCCCCCCCCC(=O)O)c1 next?
OUT: inactive

IN: Can you handle CN1CCN(Cc2ccc(NC(=O)c3cccc(C#Cc4cnc(N)c5ncccc45)c3F)cc2C(F)(F)F)CC1 next?
OUT: inactive

IN: Can you handle CCCc1n(Cc2ccc3ccccc3c2)c2ccccc2[n+]1Cc1ccc2ccccc2c1 next?
OUT: active

IN: Can you handle Clc1ccc(Nc2ncnc3c2sc2ncccc23)cc1 next?
OUT: inactive

IN: Can you handle CSC(=S)N/N=C(\C)c1ccccn1 next?
OUT: inactive
